Assay name: Stability in pH 7.5 Tris acetate/NaCl/DTT buffer after 20 mins in presence of Mn2+ by malachite green dye based assay
Type: physicochemical
Experimental setup: pH 7.5, 20 min
Quantity name: Stability

Some entries whose results are on file:
Nc1ncnc2c1ncn2[C@@H]1O[C@H](COP(=O)(O)OP(=O)(O)OP(=O)(O)OC[C@H]2O[C@@H](n3cnc4c(N)ncnc43)[C@H](O)[C@@H]2O)[C@@H](O)[C@H]1O
Stable
O=P(O)(O)CP(=O)(O)O[C@H]1[C@H](OP(=O)(O)O)[C@@H](OP(=O)(O)O)[C@@H](OP(=O)(O)O)[C@@H](OP(=O)(O)O)[C@@H]1OP(=O)(O)O
Stable
O=P(O)(O)O[C@H]1[C@@H](OP(=O)(O)O)[C@H](OP(=O)(O)O)[C@@H](OP(=O)(O)OP(=O)(O)O)[C@H](OP(=O)(O)O)[C@H]1OP(=O)(O)O
Stable
Nc1ncnc2c1ncn2[C@@H]1O[C@H](COP(=O)(O)OP(=O)(O)OP(=O)(O)OP(=O)(O)OP(=O)(O)OC[C@H]2O[C@@H](n3cnc4c(N)ncnc43)[C@H](O)[C@@H]2O)[C@@H](O)[C@H]1O
Stable
O=P(O)(O)O[C@@H]1[C@@H](OP(=O)(O)O)[C@@H](OP(=O)(O)O)[C@@H](OP(=O)(O)OP(=O)(O)O)[C@H](OP(=O)(O)O)[C@H]1OP(=O)(O)O
Stable

According to the records, this compound `O=P(O)(O)O[C@@H]1[C@@H](O)[C@@H](O)[C@@H](OP(=O)(O)OP(=O)(O)O)[C@H](O)[C@H]1OP(=O)(O)O` displays Stability of Stable

Lab note: measured Stability of `O=P(O)(O)CP(=O)(O)O[C@@H]1[C@H](OP(=O)(O)O)[C@H](OP(=O)(O)O)[C@@H](OP(=O)(O)O)[C@H](OP(=O)(O)O)[C@H]1OP(=O)(O)O` was Stable
